system.name: recombinant rat PIM-3 (Rattus norvegicus)
experiment: PIM-3 Assay (as Example A)
protocol.conditions: averaged IC50; 30 μM ATP, 3.75 μM PIM2tide, 0.5 nM PIM-3
Counter-ions that a name gives are not always drawn.
pIC50: recorded values
// pIC50 is dimensionless: -log10 of concentration (M)

Here's what some known entries look like.
molecule	measured
Cn1cc(-c2ccc3ccc(-c4nnc5ccc([C@@H](N6CC[C@H](N)C6)C(F)(F)F)cn45)nc3c2F)cn1 [Example 171, tri-hydrochloride]	9.30
N[C@H]1CCN([C@H](c2ccc3nnc(-c4ccc5ccc(SCCO)cc5n4)n3c2)C(F)(F)F)C1 [Example 267, hydrochloride]	9.15
C[C@]1(N)CCN([C@@H](c2ccc3nnc(-c4ccc5ccc(C6CC6)cc5n4)n3c2)C(F)(F)F)C1 [Example 223, dihydrochloride]	9.52
COCC(C)(COC)c1cccc2ccc(-c3nnc4ccc([C@@H](N5CC[C@H](N)C5)C(F)(F)F)cn34)nc12 [Example 110, dihydrochloride]	8.74
CCC(CC)C(=O)OCCOc1cc2nc(-c3nnc4ccc([C@@H](N5CC[C@H](N)C5)C(F)(F)F)cn34)ccc2cc1F	7.25
CCOc1cc2nc(-c3nnc4ccc([C@@H](N5C[C@@H](N)[C@H](OC)C5)C(F)(F)F)cn34)ccc2cc1F [Example 299, dihydrochloride]	8.80
N[C@H]1CCN([C@H](c2ccc3nnc(-c4ccc5cc(F)cc(OCC6CC6)c5n4)n3c2)C(F)(F)F)C1 [Example 158, hydrochloride]	8.96
CC(C)(C)OC(=O)N[C@@H]1CCN([C@@H](c2ccc3nnc(-c4ccc5ccc(C(=O)O)cc5n4)n3c2)C(F)(F)F)C1	7.74

Prompt: Query (molecule): COC[C@H](C)Oc1cccc2ccc(-c3nnc4ccc([C@@H](N5CC[C@H](N)C5)C(F)(F)F)cn34)nc12 [Example 141, dihydrochloride] ; field requested: pIC50
Response: 9.05

Prompt: Query (molecule): Cc1cc(-c2cc3nc(-c4nnc5ccc([C@@H](N6CC[C@H](N)C6)C(F)(F)F)cn45)ccc3cc2F)n(C)n1 [Example 204, dihydrochloride] ; field requested: pIC50
Response: 8.52

Prompt: Query (molecule): N[C@H]1CCN([C@H](c2ccc3nnc(-c4ccc5ccc(C6CC6)cc5n4)n3c2)C(F)(F)F)C1 (single isomer, unassigned) ; field requested: pIC50
Response: 9.00

Prompt: Query (molecule): CCSc1ccc2ccc(-c3nnc4ccc([C@@H](N5CC[C@H](N)C5)C(F)(F)F)cn34)nc2c1 [Example 266, hydrochloride] ; field requested: pIC50
Response: 9.00

----------
log10(IC50): recorded values
system.name: recombinant rat PIM-3 (Rattus norvegicus)
experiment: PIM-3 Assay (as Example A)
protocol.conditions: averaged IC50; 30 μM ATP, 3.75 μM PIM2tide, 0.5 nM PIM-3
Structures can show the parent of a compound that is named as a salt.
In plain terms, each number is the log10 of measured IC50 in nM.

Here's what some known entries look like.
molecule	log10(IC50)
CC(C)(C)NC(=O)c1ccc2ccc(-c3nnc4ccc([C@@H](N5CC[C@H](N)C5)C(F)(F)F)cn34)nc2c1 [Example 46, dihydrochloride]	-0.52
COc1cc2nc(-c3nnc4ccc([C@@H](N5C[C@@H](N)[C@@H](O)C5)C(F)(F)F)cn34)ccc2cc1F [Example 131, dihydrochloride]	1.23
N[C@H]1CCN(C(c2ccc3nnc(-c4ccc5ccc(-c6cccnc6)cc5n4)n3c2)C(F)(F)F)C1 (stereo partly drawn) [Example 18, tri-hydrochloride]	-0.30

Prompt: Query (molecule): CC(C)NC(=O)c1ccc2ccc(-c3nnc4ccc([C@@H](N5CC[C@@H](N)C5)C(F)(F)F)cn34)nc2c1 [Example 49, dihydrochloride] ; field requested: log10(IC50)
Response: -0.40

Prompt: Query (molecule): `Cc1cc(-c2ccc3ccc(-c4nnc5ccc([C@@H](N6CC[C@H](N)C6)C(F)(F)F)cn45)nc3c2C)n(C)n1` ; field requested: log10(IC50)
Response: 0.90

Prompt: Query (molecule): N[C@H]1CCN([C@H](c2ccc3nnc(-c4ccc5ccc(OC(F)(F)F)cc5n4)n3c2)C(F)(F)F)C1 [Example 239, dihydrochloride] ; field requested: log10(IC50)
Response: 1.08

----------
pIC50: recorded values
system.name: PIM-1 (Homo sapiens)
Sequence (P11309 whole entry, species assumed): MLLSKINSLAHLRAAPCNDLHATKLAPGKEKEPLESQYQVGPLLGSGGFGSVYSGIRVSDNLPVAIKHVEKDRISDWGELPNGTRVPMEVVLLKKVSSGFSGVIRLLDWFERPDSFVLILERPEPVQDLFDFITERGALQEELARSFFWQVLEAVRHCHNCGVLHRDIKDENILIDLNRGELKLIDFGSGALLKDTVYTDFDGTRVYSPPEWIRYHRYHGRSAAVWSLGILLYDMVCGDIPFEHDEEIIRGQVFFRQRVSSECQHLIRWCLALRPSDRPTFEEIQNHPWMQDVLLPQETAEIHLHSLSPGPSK
experiment: Enzyme PIM-1 Assay ([33P]ATP incorporation into PIM2tide, filter plate)
Type: biochemical
protocol.conditions: averaged IC50; 35 μM ATP, 7.5 μM PIM2tide, 0.25 nM PIM-1, 60 min at 22° C.
Where a name gives a salt, the structure may show the parent alone.
// pIC50 is dimensionless: -log10 of concentration (M)

compound	pIC50
CC(C)Oc1cccc2ccc(-c3nnc4ccc([C@H](N5CC[C@@H](O)C5)C(F)(F)F)cn34)nc12	10.00

Prompt: Query (compound): CC(C)Oc1cccc2ccc(-c3nnc4ccc([C@@H](N5CC[C@H](NCCF)C5)C(F)(F)F)cn34)nc12 [Example 81, dihydrochloride] ; field requested: pIC50
Response: 9.43

Prompt: Query (compound): COCCOc1cccc2ccc(-c3nnc4ccc([C@@H](N5CC[C@H](N)C5)C(F)(F)F)cn34)nc12 [Example 227, dihydrochloride] ; field requested: pIC50
Response: 9.32

Prompt: Query (compound): N[C@H]1CCN([C@H](c2ccc3nnc(-c4ccc5cccc(Cl)c5n4)n3c2)C(F)(F)F)C1 [Example 182, dihydrochloride] ; field requested: pIC50
Response: 9.12

Prompt: Query (compound): CC(C)Oc1cc(F)cc2ccc(-c3nnc4ccc([C@H](N5CC[C@](C)(N)C5)C(F)(F)F)cn34)nc12 [Example 216, dihydrochloride] ; field requested: pIC50
Response: 9.42

----------
system.name: recombinant rat PIM-3 (Rattus norvegicus)
experiment: PIM-3 Assay (as Example A)
protocol.conditions: averaged IC50; 30 μM ATP, 3.75 μM PIM2tide, 0.5 nM PIM-3
Counter-ions that a name gives are not always drawn.
reported.property: IC50 (nM)
Give your result in nM as a bare value.

Prompt: Query (molecule): N[C@H]1CCN([C@H](c2ccc3nnc(-c4ccc5cc(F)c(OC6CCOCC6)cc5n4)n3c2)C(F)(F)F)C1 [Example 156, hydrochloride] ; field requested: IC50
Response: 0.4

Prompt: Query (molecule): COCCOc1ccc2ccc(-c3nnc4ccc([C@@H](N5CC[C@H](N)C5)C(F)(F)F)cn34)nc2c1Cl [Example 174, hydrochloride] ; field requested: IC50
Response: 0.8

Prompt: Query (molecule): FC(F)(F)[C@@H](c1ccc2nnc(-c3ccc4cccc(OCC5CC5)c4n3)n2c1)N1C[C@@H]2C[C@H]1CN2 [Example 67, dihydrochloride] ; field requested: IC50
Response: 3.2

----------
system.name: PIM-1 (Homo sapiens)
Counter-ions that a name gives are not always drawn.
reported.property: pIC50
// pIC50 is dimensionless: -log10 of concentration (M)

Here's what some known entries look like.
compound	pIC50
N#Cc1cccc2ccc(-c3nnc4ccc([C@@H](N5C[C@@H]6C[C@H]5CN6)C(F)(F)F)cn34)nc12 [Example 89, dihydrochloride]	8.27
CCOc1cc2nc(-c3nnc4ccc([C@@H](C)N5CC[C@H](N)C5)cn34)ccc2cc1F [Example 309, trihydrochloride]	8.93
COc1cc2nc(-c3nnc4ccc([C@@H](N5CC[C@H](N)C5)C(F)(F)F)cn34)ccc2cc1C [Example 138, hydrochloride]	8.69
COCCOc1ccc2ccc(-c3nnc4ccc([C@@H](N5CC[C@H](N)C5)C(F)(F)F)cn34)nc2c1C1CC1 [Example 152, dihydrochloride]	9.60
FC(F)(F)[C@@H](c1ccc2nnc(-c3ccc4cccc(C5CC5)c4n3)n2c1)N1C[C@@H]2C[C@H]1CN2 [Example 65, dihydrochloride]	8.84
CCOc1cc2nc(-c3nnc4ccc([C@H](N5CCC(N)(CC)C5)C(F)(F)F)cn34)ccc2cc1F (single isomer, unassigned; diastereomer 1) [Example 251, dihydrochloride]	9.12

Prompt: Query (compound): COCCOc1c(F)ccc2ccc(-c3nnc4ccc([C@@H](N5CC[C@H](N)C5)C(F)(F)F)cn34)nc12 [Example 108, hydrochloride] ; field requested: pIC50
Response: 9.31

Prompt: Query (compound): CC(C)N[C@H]1CCN(C(c2ccc3nnc(-c4ccc5cccc(OCC6CC6)c5n4)n3c2)C(F)(F)F)C1 (stereo partly drawn) [Example 32, dihydrochloride] ; field requested: pIC50
Response: 9.28

Prompt: Query (compound): CC(C)(C)c1cccc2ccc(-c3nnc4ccc([C@@H](N5C[C@@H](N)[C@H](O)C5)C(F)(F)F)cn34)nc12 [Example 145, dihydrochloride] ; field requested: pIC50
Response: 9.60

Prompt: Query (compound): N[C@H]1CCN([C@H](c2ccc3nnc(-c4ccc5cc(F)c(OCC6CC6)cc5n4)n3c2)C(F)(F)F)C1 [Example 134, hydrochloride] ; field requested: pIC50
Response: 9.42
